Listing of entries alongside the reported inhibition.
- STUDY_SYSTEM: Muscarinic acetylcholine receptor M3 (Homo sapiens) (UniProt P20309)
- Sequence (P20309 whole entry, looked up): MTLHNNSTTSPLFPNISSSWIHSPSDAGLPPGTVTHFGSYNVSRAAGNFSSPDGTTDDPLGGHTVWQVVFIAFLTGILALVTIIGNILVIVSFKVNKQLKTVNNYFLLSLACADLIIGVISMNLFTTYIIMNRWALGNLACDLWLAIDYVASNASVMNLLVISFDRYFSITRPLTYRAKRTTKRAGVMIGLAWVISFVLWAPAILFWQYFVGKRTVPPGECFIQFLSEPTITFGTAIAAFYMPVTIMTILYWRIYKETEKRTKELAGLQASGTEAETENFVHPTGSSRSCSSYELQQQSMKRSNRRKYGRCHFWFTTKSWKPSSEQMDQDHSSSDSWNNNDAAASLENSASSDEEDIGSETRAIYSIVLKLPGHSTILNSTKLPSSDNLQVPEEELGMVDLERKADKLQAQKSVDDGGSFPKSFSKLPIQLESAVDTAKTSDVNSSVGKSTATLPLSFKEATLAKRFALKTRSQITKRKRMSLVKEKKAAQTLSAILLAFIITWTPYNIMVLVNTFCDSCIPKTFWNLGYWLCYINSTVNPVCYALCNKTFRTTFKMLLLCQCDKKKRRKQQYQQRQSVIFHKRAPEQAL
- TEST_DESCRIPTION: Ability to displace [3H]N-methylscopolamine binding to M3 human recombinant muscarinic receptor in CHO cells at concentration 10 uM
- Type: cell-based
# output: bare number, implied unit %

COMPOUND	inhibition / %
COc1ccc(-c2cc(/C=C3\CN4CCC3CC4)on2)cc1	18
COc1ccc(COc2ccc(-c3cc(/C=C4/CN5CCC4CC5)on3)cc2OCc2ccc(OC)cc2)cc1	94
Cc1ccc(-c2cc(/C=C3/CN4CCC3CC4)on2)cc1	15

INPUT: Would you mind telling me what inhibition value was observed for Fc1ccc(-c2cc(/C=C3\CN4CCC3CC4)on2)cc1 ?
OUTPUT: 10

INPUT: Field request: inhibition | item: COc1ccc(-c2cc(/C=C3\CN4CCC3C4)on2)cc1 (stereo not drawn)
OUTPUT: 2

INPUT: Tell me the measured inhibition of COc1ccc(COc2ccc(-c3cc(/C=C4\CN5CCC4CC5)on3)cc2)cc1 , please.
OUTPUT: 37

INPUT: Looking for the measured inhibition of Nc1ccc(-c2cc(/C=C3/CN4CCC3C4)on2)cc1 (stereo not drawn) , can you help?
OUTPUT: 10

INPUT: Look up inhibition for this compound: COc1ccc(COc2ccc(-c3cc(/C=C4\CN5CCC4CC5)on3)cc2OCc2ccc(OC)cc2)cc1
OUTPUT: 98
